- Test system: SNB-19 CNS
- Protocol text: NCI-60 one-dose screen, 48 h (100 = growth as untreated, 0 = no growth, -100 = all killed)
- Experimental context: 10 µM
This is part of a sample that, as a whole, favours compounds with a hit. Of some 83,000 tested, about 20% had one in any assay.

Chem smiles: O=C1Nc2cc(Cl)ccc2/C1=C/c1ccc(OCc2ccc(Br)cc2F)cc1
System name: SNB-19 CNS
Unit: %
growth: -45.4

Chem smiles: Nc1n[nH]c2cccc(C#Cc3cccc(NC(=O)Nc4cc(C(F)(F)F)cc(C(F)(F)F)c4)c3)c12
System name: SNB-19 CNS
Unit: %
growth: -19.7

Chem smiles: COc1ccc(-c2cc(-c3cc(C(=O)c4ccccc4)n4ccc(C)cc34)nc(N)c2C#N)cc1
System name: SNB-19 CNS
Unit: %
growth: 45.1

Chem smiles: N#Cc1ccc(-c2nn(-c3ccc(C(=O)O)cc3)cc2CNc2ccc(Cl)cc2)cc1
System name: SNB-19 CNS
Unit: %
growth: 75.9

Chem smiles: Cc1cccc(-c2nc(Nc3ccccc3C(=O)O)c3ccccc3n2)c1
System name: SNB-19 CNS
Unit: %
growth: 21.2

Chem smiles: c1ccc(C(=C(c2ccc(OCCN3CCCCC3)cc2)c2ccc(OCCN3CCCCC3)cc2)C2CCCC2)cc1
System name: SNB-19 CNS
Unit: %
growth: -96.8

Chem smiles: Cc1cc(C)cc(Oc2cccc(-c3c(C)nnn3C3CCN(CCN(C)C)CC3)n2)c1
System name: SNB-19 CNS
Unit: %
growth: 47.7

Chem smiles: CCOc1ccc(/C=N/NC(=O)Cn2nc(Cc3ccc([N+](=O)[O-])cc3)c3onc(C)c3c2=O)cc1
System name: SNB-19 CNS
Unit: %
growth: -6.58

Chem smiles: CCCn1c(=O)c2[nH]c(-c3ccc(OCc4nc5ccccc5[nH]4)cc3)nc2n(CCC)c1=O
System name: SNB-19 CNS
Unit: %
growth: 37.1
